Please go through the items and note down their inhibition at 300 g/ha.
- Test system: wheat (Triticum aestivum var. Lew)
- METHOD DESCRIPTION: Preemergence herbicidal activity, wheat
- Assay type: in vivo
- ASSAY CONDITIONS: Triticum aestivum, pre-emergence, Rate of Application 0.3 Kg/Ha, examined after 12-17 days, read-out: PREEMERGENCE HERBICIDAL ACTIVITY (% CONTROL) WHT
Give bare numbers, in %.

| SMILES INPUT | EXPERIMENTAL VALUE |
| --- | --- |
| Cn1c(C(F)(F)F)cc(=O)n(-c2c(F)cc(Cl)c3[nH]c(C(F)(F)F)nc23)c1=O | 30 |
| CC(=O)OC(C)(C)c1nc2c(-n3c(=O)cc(C(F)(F)F)n(C)c3=O)c(F)cc(Br)c2o1 | 100 |
| Cn1c(C(F)(F)F)cc(=O)n(-c2c(F)cc(Cl)c3[nH]c(C(F)(F)F)cc23)c1=O | 75 |
| COc1nc2c(-n3c(=O)cc(C(F)(F)F)n(C)c3=O)c(F)cc(Br)c2o1 | 100 |
| CC(C)c1nc2c(-n3c(=O)cc(C(F)(F)F)n(C)c3=O)c(F)cc(Cl)c2o1 | 100 |

Here are 2 compounds. What values of inhibition at 300 g/ha were reported for them?
1. CCc1nc2c(-n3c(=O)cc(C(F)(F)F)n(C)c3=O)c(F)cc(Cl)c2[nH]1
2. Cn1c(C(F)(F)F)cc(=O)n(-c2c(F)cc(Cl)c3[nH]c(C(C)(C)C)nc23)c1=O

[A]
1. 95
2. 100

Origin of values: patent US6352958B1
